# Species: Rattus norvegicus
# test.name: Open TG-GATES - Regimen: Daily Repeat
# Format: toxicity, organism-based, Sprague-Dawley
# Parameters: regimen Daily Repeat, gender Male, age 6 weeks
# test.parameters: in vivo, po, 0 mg/kg, 72 h, tissue Plasma, route gavage, dose level Control, time 3 day
# gamma-GTP >= 1 IU/L gives 1 (yes), anything below gives 0 (no)

In: Can CSc1ccc2c(c1)N(CCC1CCCCN1C)c1ccccc1S2 (stereo not given) [THIORIDAZINE] be said to have gamma-GTP at or above 1 IU/L?
Out: 1 (yes)

In: Continue with C[C@H](CS)C(=O)N1CCC[C@H]1C(=O)O [CAPTOPRIL]
Out: 1 (yes)

In: Continue with COc1ccc(Cc2nccc3cc(OC)c(OC)cc23)cc1OC [PAPAVERINE]
Out: 1 (yes)

In: Continue with CCCC(CCC)C(=O)O [VALPROIC ACID]
Out: 0 (no)

In: Continue with O=C(O)c1cc(/N=N/c2ccc(S(=O)(=O)Nc3ccccn3)cc2)ccc1O [SULFASALAZINE]
Out: 1 (yes)

In: Continue with Cn1c(=O)c2[nH]cnc2n(C)c1=O.O [THEOPHYLLINE]
Out: 1 (yes)

In: Continue with Clc1ccccc1CN1CCc2sccc2C1 [TICLOPIDINE]
Out: 1 (yes)

In: Continue with CN(C)CCC=C1c2ccccc2CCc2ccccc21 [AMITRIPTYLINE]
Out: 0 (no)

In: Continue with CO[C@H]1/C=C/O[C@@]2(C)Oc3c(C)c(O)c4c(O)c(c(/C=N/N5CCN(C)CC5)c(O)c4c3C2=O)NC(=O)/C(C)=C\C=C\[C@H](C)[C@H](O)[C@@H](C)[C@@H](O)[C@@H](C)[C@H](OC(C)=O)[C@@H]1C [RIFAMPIN]
Out: 1 (yes)

In: Continue with CCc1cc(C(N)=S)ccn1 [ETHIONAMIDE]
Out: 1 (yes)

In: Continue with NC(=O)N1c2ccccc2C=Cc2ccccc21 [CARBAMAZEPINE]
Out: 0 (no)

In: Continue with O=C(O)c1cn(C2CC2)c2cc(N3CCNCC3)c(F)cc2c1=O [CIPROFLOXACIN]
Out: 1 (yes)

* * *

# Organism: Rattus norvegicus
# test.name: Open TG-GATES - Regimen: Single
# Assay type: toxicity, organism-based, Sprague-Dawley
# Parameters: regimen Single, gender Male, age 6 weeks
# test.parameters: in vivo, po, 100 mg/kg, 3 h, tissue Blood, route gavage, dose level Low
So I've got a bunch of compounds here, and I need their Lym values.
Give a bare numeral; the unit % is implied.

In: What value of Lym has been reported for the following compound? O=C(O)c1cn(C2CC2)c2cc(N3CCNCC3)c(F)cc2c1=O [CIPROFLOXACIN]
Out: 78.4

In: Continue with Clc1ccccc1CN1CCc2sccc2C1 [TICLOPIDINE]
Out: 78.6

In: Continue with CCc1cc(C(N)=S)ccn1 [ETHIONAMIDE]
Out: 73.6

In: Continue with O=C(O)c1cc(/N=N/c2ccc(S(=O)(=O)Nc3ccccn3)cc2)ccc1O [SULFASALAZINE]
Out: 77.2

In: Continue with C[C@H](CS)C(=O)N1CCC[C@H]1C(=O)O [CAPTOPRIL]
Out: 82.2

* * *

So I've got a bunch of molecules here, and I need their BUN values.
# Species: Rattus norvegicus
# test.name: Open TG-GATES - Regimen: Daily Repeat
# Assay type: toxicity, organism-based, Sprague-Dawley
# Design: regimen Daily Repeat, gender Male, age 6 weeks
# test.parameters: in vivo, po, 0 mg/kg, […], tissue Plasma, route gavage, dose level Control, time 7 day
Give a bare numeral; the unit mg/dL is implied.

In: What value of BUN has been reported for the following molecule? NC(=O)N1c2ccccc2C=Cc2ccccc21 [CARBAMAZEPINE]
Out: 16.8

In: Continue with COc1ccc2c(c1)c(CC(=O)O)c(C)n2C(=O)c1ccc(Cl)cc1
Out: 18.4

In: Continue with O=C(O)c1cn(C2CC2)c2cc(N3CCNCC3)c(F)cc2c1=O
Out: 19.6

In: Continue with CC(=O)Oc1ccccc1C(=O)O
Out: 15.8

In: Continue with CO[C@H]1/C=C/O[C@@]2(C)Oc3c(C)c(O)c4c(O)c(c(/C=N/N5CCN(C)CC5)c(O)c4c3C2=O)NC(=O)/C(C)=C\C=C\[C@H](C)[C@H](O)[C@@H](C)[C@@H](O)[C@@H](C)[C@H](OC(C)=O)[C@@H]1C
Out: 17.8

* * *

# Species: Rattus norvegicus
# test.name: Open TG-GATES - Regimen: Daily Repeat
# Assay type: toxicity, organism-based, Sprague-Dawley
# Parameters: regimen Daily Repeat, gender Male, age 6 weeks
# test.parameters: in vivo, po, 0 mg/kg, […], tissue Plasma, route gavage, dose level Control, time 28 day
So I've got a bunch of molecules here, and I need their TG values.
Give a bare numeral; the unit mg/dL is implied.

In: What value of TG has been reported for the following molecule? C[C@H](CS)C(=O)N1CCC[C@H]1C(=O)O
Out: 142.4

In: Continue with CN(C)CCC=C1c2ccccc2CCc2ccccc21
Out: 134.8

In: Continue with CSc1ccc2c(c1)N(CCC1CCCCN1C)c1ccccc1S2 (centres undefined)
Out: 186.2

In: Continue with CCc1cc(C(N)=S)ccn1 [ETHIONAMIDE]
Out: 157.2

In: Continue with COc1ccc(Cc2nccc3cc(OC)c(OC)cc23)cc1OC
Out: 132.6

In: Continue with Clc1ccccc1CN1CCc2sccc2C1
Out: 126.8

In: Continue with CC(=O)Oc1ccccc1C(=O)O
Out: 111.6

In: Continue with COc1ccc2c(c1)c(CC(=O)O)c(C)n2C(=O)c1ccc(Cl)cc1
Out: 181.2

In: Continue with O=C(O)c1cn(C2CC2)c2cc(N3CCNCC3)c(F)cc2c1=O
Out: 126.4

In: Continue with O=C(O)c1cc(/N=N/c2ccc(S(=O)(=O)Nc3ccccn3)cc2)ccc1O
Out: 151.4

In: Continue with CCCC(CCC)C(=O)O
Out: 155

In: Continue with CO[C@H]1/C=C/O[C@@]2(C)Oc3c(C)c(O)c4c(O)c(c(/C=N/N5CCN(C)CC5)c(O)c4c3C2=O)NC(=O)/C(C)=C\C=C\[C@H](C)[C@H](O)[C@@H](C)[C@@H](O)[C@@H](C)[C@H](OC(C)=O)[C@@H]1C
Out: 165

In: Continue with Cn1c(=O)c2[nH]cnc2n(C)c1=O.O
Out: 145.6

In: Continue with NC(=O)N/N=C/c1ccc([N+](=O)[O-])o1
Out: 145.4

* * *

# Organism: Rattus norvegicus
# test.name: Open TG-GATES - Regimen: Single
# Type: toxicity, organism-based, Sprague-Dawley
# Set-up: regimen Single, gender Male, age 6 weeks
# test.parameters: in vivo, po, 300 mg/kg, 9 h, tissue Plasma, route gavage, dose level Middle
measurement.name: CRE (mg/dL)
Give a bare numeral; the unit mg/dL is implied.

In: What value of CRE has been reported for the following compound? Clc1ccccc1CN1CCc2sccc2C1 [TICLOPIDINE]
Out: 0.4

In: Continue with CCc1cc(C(N)=S)ccn1 [ETHIONAMIDE]
Out: 0.5

In: Continue with O=C(O)c1cc(/N=N/c2ccc(S(=O)(=O)Nc3ccccn3)cc2)ccc1O [SULFASALAZINE]
Out: 0.3

In: Continue with C[C@H](CS)C(=O)N1CCC[C@H]1C(=O)O [CAPTOPRIL]
Out: 0.4

In: Continue with O=C(O)c1cn(C2CC2)c2cc(N3CCNCC3)c(F)cc2c1=O [CIPROFLOXACIN]
Out: 0.5

* * *

# Species: Rattus norvegicus
# test.name: Open TG-GATES - Regimen: Single
# Type: toxicity, organism-based, Sprague-Dawley
# Parameters: regimen Single, gender Male, age 6 weeks
# test.parameters: in vivo, po, 100 mg/kg, 6 h, tissue Plasma, route gavage, dose level Low
measurement.name: TC (mg/dL)
Give a bare numeral; the unit mg/dL is implied.

In: What value of TC has been reported for the following compound? Clc1ccccc1CN1CCc2sccc2C1
Out: 77.8

In: Continue with C[C@H](CS)C(=O)N1CCC[C@H]1C(=O)O
Out: 69.8

In: Continue with O=C(O)c1cn(C2CC2)c2cc(N3CCNCC3)c(F)cc2c1=O
Out: 71.4

In: Continue with CCc1cc(C(N)=S)ccn1 [ETHIONAMIDE]
Out: 69.6

In: Continue with O=C(O)c1cc(/N=N/c2ccc(S(=O)(=O)Nc3ccccn3)cc2)ccc1O
Out: 76.6

* * *

# Species: Rattus norvegicus
# test.name: Open TG-GATES - Regimen: Single
# Assay type: toxicity, organism-based, Sprague-Dawley
# Set-up: regimen Single, gender Male, age 6 weeks
# test.parameters: in vivo, po, 0 mg/kg, 24 h, tissue Plasma, route gavage, dose level Control
measurement.name: RALB (g/dL)
Give a bare numeral; the unit g/dL is implied.

In: What value of RALB has been reported for the following molecule? CCc1cc(C(N)=S)ccn1 [ETHIONAMIDE]
Out: 3.6

In: Continue with C[C@H](CS)C(=O)N1CCC[C@H]1C(=O)O
Out: 3.9

In: Continue with O=C(O)c1cn(C2CC2)c2cc(N3CCNCC3)c(F)cc2c1=O
Out: 4

In: Continue with O=C(O)c1cc(/N=N/c2ccc(S(=O)(=O)Nc3ccccn3)cc2)ccc1O
Out: 3.4

In: Continue with NC(=O)N/N=C/c1ccc([N+](=O)[O-])o1
Out: 2.5

In: Continue with Cn1c(=O)c2[nH]cnc2n(C)c1=O.O
Out: 3

In: Continue with Clc1ccccc1CN1CCc2sccc2C1
Out: 3.4

In: Continue with COc1cc2c(c3oc(=O)c4c(c13)CCC4=O)[C@@H]1C=CO[C@@H]1O2
Out: 2.8

In: Continue with CC(=O)Oc1ccccc1C(=O)O
Out: 3.5

In: Continue with CN(C)CCC=C1c2ccccc2CCc2ccccc21
Out: 2.6
